- Tested on: human myelomonocytic, biphenotypic leukemia MV4-11 cells
- test: Growth inhibition test (MTS) on MV4-11 cells
- Assay type: cell-based
- measurement.conditions: Homo sapiens, MV4-11, 72 hours, read-out: MV-4-11 ED50
metric.name: pIC50
The read-out pIC50 is expressed as -log10 of concentration in moles per litre.

These recorded examples may help you get a feel for the data.
>>> value_observed("CN(C)CCN(Cc1ccccc1)c1nc2c(Br)c(Br)c(Br)c(Br)c2n1Cc1ccccc1")
5.12
>>> value_observed("CCCCCNC1CCCCC1Nc1nc2c(Br)c(Br)c(Br)c(Br)c2[nH]1 (centres unmarked)")
5.81
>>> value_observed("Nc1cc(F)c(F)cc1Nc1nc2c(Br)c(Br)c(Br)c(Br)c2[nH]1")
5.41
>>> value_observed("CCOC(=O)N1CCN(c2nc3c(Br)c(Br)c(Br)c(Br)c3[nH]2)CC1")
5.29
>>> value_observed("CN(C)CC(CNc1nc2c(Br)c(Br)c(Br)c(Br)c2[nH]1)C(O)c1ccccc1 (centres unmarked)")
5.62

Given the compound CN1CCCN(c2nc3c(Br)c(Br)c(Br)c(Br)c3[nH]2)CC1 , what is its reported pIC50?
5.59

Further, for CN1CCC(N(C)CC(Nc2nc3c(Br)c(Br)c(Br)c(Br)c3[nH]2)c2ccccc2)CC1 (centres unmarked) ?
5.62

Further, for Brc1c(Br)c(Br)c2[nH]c(NCCCN3CCCC3)nc2c1Br ?
5.81

###

- System: human prostate adenocarcinoma PC3 cells
- test: Growth inhibition test (MTS) on PC3 cells
- Type: cell-based
- measurement.conditions: Homo sapiens, PC-3, 72 hours, read-out: PC-3 ED50
The following compounds are shown together with reported pIC50 values.
The read-out pIC50 is expressed as -log10 of concentration in moles per litre.

These recorded examples may help you get a feel for the data.
>>> value_observed("NC1CCCC(Nc2nc3c(Br)c(Br)c(Br)c(Br)c3[nH]2)C1 (stereo not drawn)")
5.08
>>> value_observed("CN1CCN(C2CCN(c3nc4c(Br)c(Br)c(Br)c(Br)c4[nH]3)CC2)CC1")
5.16

Now let's try a different one.
Given the compound CCOC(=O)N1CCN(c2nc3c(Br)c(Br)c(Br)c(Br)c3n2C(=O)OCC)CC1 , what is its reported pIC50?
5.22
